Data provenance: ChEMBL document CHEMBL5523701

Target: Peptidyl-prolyl cis-trans isomerase FKBP5 (Homo sapiens, UniProt Q13451)
Sequence (Q13451 whole entry): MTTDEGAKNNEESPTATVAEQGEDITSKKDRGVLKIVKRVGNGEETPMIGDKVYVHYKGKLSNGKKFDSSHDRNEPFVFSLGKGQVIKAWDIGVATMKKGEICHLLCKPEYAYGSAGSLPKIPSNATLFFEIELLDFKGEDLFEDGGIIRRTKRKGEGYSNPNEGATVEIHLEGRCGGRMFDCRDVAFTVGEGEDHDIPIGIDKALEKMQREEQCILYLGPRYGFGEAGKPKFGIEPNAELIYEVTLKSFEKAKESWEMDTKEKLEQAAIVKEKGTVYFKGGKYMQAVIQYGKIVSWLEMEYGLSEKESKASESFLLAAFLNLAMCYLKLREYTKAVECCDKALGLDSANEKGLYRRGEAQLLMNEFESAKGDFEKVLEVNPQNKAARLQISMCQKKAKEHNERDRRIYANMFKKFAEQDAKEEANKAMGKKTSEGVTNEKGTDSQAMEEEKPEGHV
pIC50: −log10 of the molar value.

{"query_smiles": "CCc1nnc(NC(=O)CSc2nc(-c3ccc(C)cc3)cc(-c3ccc(OC)cc3)c2C#N)o1", "pIC50": 5.70}

---

Biological target: Mitochondrial import receptor subunit TOM70 (Homo sapiens, UniProt O94826)
Sequence (O94826 whole entry): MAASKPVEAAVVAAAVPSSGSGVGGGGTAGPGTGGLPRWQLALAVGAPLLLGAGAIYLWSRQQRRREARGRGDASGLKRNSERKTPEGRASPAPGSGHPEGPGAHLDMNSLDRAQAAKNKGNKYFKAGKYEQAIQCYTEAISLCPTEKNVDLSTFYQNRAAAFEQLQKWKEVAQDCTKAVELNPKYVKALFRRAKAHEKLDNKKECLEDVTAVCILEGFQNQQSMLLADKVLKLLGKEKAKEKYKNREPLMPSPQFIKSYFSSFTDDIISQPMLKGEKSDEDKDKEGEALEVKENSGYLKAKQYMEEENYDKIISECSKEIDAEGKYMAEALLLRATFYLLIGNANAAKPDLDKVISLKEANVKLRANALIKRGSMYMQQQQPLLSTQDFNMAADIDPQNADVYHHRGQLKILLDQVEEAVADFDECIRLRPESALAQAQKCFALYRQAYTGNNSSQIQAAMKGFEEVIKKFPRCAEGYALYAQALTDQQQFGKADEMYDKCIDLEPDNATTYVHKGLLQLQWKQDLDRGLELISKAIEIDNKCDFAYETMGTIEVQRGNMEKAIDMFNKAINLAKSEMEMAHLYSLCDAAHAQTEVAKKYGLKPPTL
Assay: Inhibition of GST-tagged human TOM70 expressed in Escherichia coli BL21 (DE3) using NH2-EDASRMEEVD-COOH peptide as substrate preincubated for 15 mins followed by substrate addition measured after 15 mins by Alpha Screen assay
pIC50: −log10 of the molar value.
Form field: pIC50 (one value per entry).

{"compound": "Cc1sc(NC(=O)CCCC(=O)Nc2sc(C)c(C)c2C(N)=O)c(C(N)=O)c1C", "pIC50": 5.92}
{"compound": "CCC1CCc2c(sc(NC(=O)CCCC(=O)Nc3sc4c(c3C(N)=O)CCC(CC)C4)c2C(N)=O)C1 (stereo not drawn)", "pIC50": 5.82}
{"compound": "COC(=O)c1c(NC(=O)CSc2nnc(-c3ccco3)c(-c3ccco3)n2)sc(C)c1C", "pIC50": 5.30}

---

Target: Serine/threonine-protein phosphatase 5 (Homo sapiens)
Sequence (P53041 whole entry): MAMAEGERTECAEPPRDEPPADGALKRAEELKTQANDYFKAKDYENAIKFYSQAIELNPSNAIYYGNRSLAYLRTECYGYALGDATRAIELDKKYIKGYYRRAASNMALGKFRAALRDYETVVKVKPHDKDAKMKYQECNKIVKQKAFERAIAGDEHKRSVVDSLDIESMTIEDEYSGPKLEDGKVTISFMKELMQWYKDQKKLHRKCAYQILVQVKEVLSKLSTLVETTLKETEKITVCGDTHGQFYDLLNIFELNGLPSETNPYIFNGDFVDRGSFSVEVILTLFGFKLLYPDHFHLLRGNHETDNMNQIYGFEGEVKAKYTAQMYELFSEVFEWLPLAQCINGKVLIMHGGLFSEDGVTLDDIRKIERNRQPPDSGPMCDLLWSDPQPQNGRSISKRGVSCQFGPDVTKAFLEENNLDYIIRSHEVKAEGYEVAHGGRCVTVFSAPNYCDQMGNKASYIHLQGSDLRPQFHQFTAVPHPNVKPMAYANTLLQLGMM

{"query_smiles": "Cc1sc(NC(=O)CCCC(=O)Nc2sc(C)c(C)c2C(N)=O)c(C(N)=O)c1C", "assayed_system": "Serine/threonine-protein phosphatase 5 (Homo sapiens)", "IC50 (nM)": 2000}

---

Target: Small glutamine-rich tetratricopeptide repeat-containing protein alpha (Homo sapiens)
Sequence (O43765 whole entry): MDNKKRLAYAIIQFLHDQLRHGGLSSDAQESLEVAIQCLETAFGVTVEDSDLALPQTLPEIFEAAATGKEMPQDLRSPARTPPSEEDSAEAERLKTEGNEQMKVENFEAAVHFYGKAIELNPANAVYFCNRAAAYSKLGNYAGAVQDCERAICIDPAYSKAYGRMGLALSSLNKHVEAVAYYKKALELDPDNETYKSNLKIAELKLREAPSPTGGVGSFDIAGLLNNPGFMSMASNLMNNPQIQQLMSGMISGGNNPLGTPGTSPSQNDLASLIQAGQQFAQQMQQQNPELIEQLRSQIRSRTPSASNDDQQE
pIC50: −log10 of the molar value.
readout_type: pIC50

{"molecule": "CCC1CCc2c(sc(NC(=O)CCCC(=O)Nc3sc4c(c3C(N)=O)CCC(CC)C4)c2C(N)=O)C1 (stereo not drawn)", "assayed_system": "Small glutamine-rich tetratricopeptide repeat-containing protein alpha (Homo sapiens)", "obs_value": 7.00}
{"molecule": "COC(=O)c1c(NC(=O)CSc2nnc(-c3ccco3)c(-c3ccco3)n2)sc(C)c1C", "assayed_system": "Small glutamine-rich tetratricopeptide repeat-containing protein alpha (Homo sapiens)", "obs_value": 5.22}
{"molecule": "Cc1sc(NC(=O)CCCC(=O)Nc2sc(C)c(C)c2C(N)=O)c(C(N)=O)c1C", "assayed_system": "Small glutamine-rich tetratricopeptide repeat-containing protein alpha (Homo sapiens)", "obs_value": 5.70}

---

Biological target: Peptidyl-prolyl cis-trans isomerase FKBP4 (Homo sapiens, UniProt Q02790)
Sequence (Q02790 whole entry): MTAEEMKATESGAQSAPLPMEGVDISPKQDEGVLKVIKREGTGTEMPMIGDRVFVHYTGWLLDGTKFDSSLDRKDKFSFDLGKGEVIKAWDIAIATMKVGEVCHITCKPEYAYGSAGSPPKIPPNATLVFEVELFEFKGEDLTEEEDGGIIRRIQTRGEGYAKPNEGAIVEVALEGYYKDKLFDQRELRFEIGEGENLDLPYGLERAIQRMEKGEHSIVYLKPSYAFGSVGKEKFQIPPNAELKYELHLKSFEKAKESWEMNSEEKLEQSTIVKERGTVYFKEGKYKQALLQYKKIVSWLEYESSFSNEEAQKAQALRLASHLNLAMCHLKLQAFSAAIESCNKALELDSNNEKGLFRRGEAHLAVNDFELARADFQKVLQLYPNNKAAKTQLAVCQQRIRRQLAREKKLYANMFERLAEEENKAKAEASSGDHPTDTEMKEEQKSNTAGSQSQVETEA

{"query_smiles": "CCS(=O)(=O)Nc1ccc(-c2nnc(SCC(=O)c3c(C)c(C)cc(C)c3C)o2)cc1", "IC50": "6 µM"}
{"query_smiles": "O=C(CSc1nnc(-c2ccc(S(=O)(=O)N3CCCC3)cc2)o1)Nc1ccc(F)cc1", "IC50": "6 µM"}
{"query_smiles": "CCOC(=O)CC(=O)CSc1nc(C)c2cc(OCC)ccc2n1", "IC50": "9 µM"}
{"query_smiles": "CCC(=O)Nc1ccc(NC(=O)CSc2nc3cc4c(cc3cc2C)CCC4)cc1C", "IC50": "5 µM"}
{"query_smiles": "Cc1ccc(NC(=O)c2cc(NC(=O)c3ccccc3)cc(NC(=O)c3ccccc3)c2)cc1C", "IC50": "> 100 µM"}
{"query_smiles": "CCC(=O)Nc1ccc(NC(=O)CSc2nc3cc4c(cc3cc2C)CCC4)cc1", "IC50": "3 µM"}
